System: Rattus norvegicus
Experiment: Antihypertensive effect after 1 mg/kg (po) administration in conscious spontaneously hypertensive rat (over a time period of 0-210 minutes).
Format: functional
Threshold check on Max fall in blood pressure: strictly below 40 mmHg is Yes; on or above 40 mmHg is No.

The following molecules have reported results that may help.
molecule	target-desc	class-label
CC1(C)Oc2ccc(C#N)cc2[C@@H](n2cc(Cl)ccc2=O)[C@@H]1O	Rattus norvegicus	Yes
CC1(C)Oc2ccc(C#N)cc2C(n2ncc3ccccc3c2=O)[C@@H]1O (stereo not given in full)	Rattus norvegicus	Yes

Lookup: # TODO verify Max fall in blood pressure < 40 mmHg strictly for this molecule: COC(=N)c1ccc2c(c1)C(N1CCCC1=O)[C@H](O)C(C)(C)O2 (stereo not given in full)
Found: No

Lookup: # TODO verify Max fall in blood pressure < 40 mmHg strictly for this molecule: `CC(=O)O[C@H]1[C@H](n2ccccc2=O)c2cc(C#N)ccc2OC1(C)C`
Found: No

Lookup: # TODO verify Max fall in blood pressure < 40 mmHg strictly for this molecule: CC1(C)Oc2ccc(C#N)cc2C(n2cnccc2=O)[C@@H]1O (stereo not given in full)
Found: Yes

----------
System: Rattus norvegicus
Test: Antihypertensive effect after 1 mg/kg (po) administration in conscious spontaneously hypertensive rat (over a time period of 0-210 minutes).
Assay type: functional
readout: Max fall in blood pressure (mmHg)
Note: unit mmHg is implicit; provide only the numeric part.

Examples with answers:
CC1(C)C=C(n2cc([N+](=O)[O-])ccc2=O)c2cc(C#N)ccc2O1 27
CCOc1ccn(C2=CC(C)(C)Oc3ccc(C#N)cc32)c(=O)c1 136
CC1(C)Oc2ccc(C#N)cc2[C@@H](n2ccccc2=O)[C@@H]1O 108

The record that follows has no Max fall in blood pressure shown yet.
Reported Max fall in blood pressure ( `COC(=O)c1ccc2c(c1)C(n1ccccc1=O)=CC(C)(C)O2` ) = 98
